Biological target: T1, full-length beta-Catenin (Uniprot ID P35222) (Homo sapiens (Human), UniProt P35222 1-781)
T1 construct: Used full-length in the FP and AlphaScreen assays; also called B-Catenin; bCat
T1 sequence: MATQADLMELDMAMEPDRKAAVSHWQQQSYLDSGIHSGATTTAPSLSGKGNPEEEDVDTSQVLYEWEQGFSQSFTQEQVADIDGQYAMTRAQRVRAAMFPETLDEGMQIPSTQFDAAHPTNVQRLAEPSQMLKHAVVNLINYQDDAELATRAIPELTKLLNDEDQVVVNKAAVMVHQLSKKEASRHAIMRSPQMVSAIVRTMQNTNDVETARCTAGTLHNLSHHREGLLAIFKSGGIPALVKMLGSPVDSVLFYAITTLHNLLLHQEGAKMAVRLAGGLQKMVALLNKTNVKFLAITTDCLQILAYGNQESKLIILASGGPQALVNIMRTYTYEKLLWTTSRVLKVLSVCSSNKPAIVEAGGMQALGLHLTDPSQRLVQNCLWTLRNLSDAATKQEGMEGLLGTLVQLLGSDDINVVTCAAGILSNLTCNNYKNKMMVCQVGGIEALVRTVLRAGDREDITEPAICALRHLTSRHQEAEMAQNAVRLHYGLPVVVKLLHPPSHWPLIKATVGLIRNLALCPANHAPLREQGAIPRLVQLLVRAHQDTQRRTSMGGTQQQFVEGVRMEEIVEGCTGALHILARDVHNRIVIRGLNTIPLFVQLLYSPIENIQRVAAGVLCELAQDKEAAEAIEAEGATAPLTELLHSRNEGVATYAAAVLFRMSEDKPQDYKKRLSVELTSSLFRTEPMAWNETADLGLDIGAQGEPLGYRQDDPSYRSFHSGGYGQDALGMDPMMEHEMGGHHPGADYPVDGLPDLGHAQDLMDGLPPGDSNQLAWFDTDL
Test: AlphaScreen (nickel chelate) competition; full-length beta-catenin + biotin-TCF4(10-53) probe as competitor; peptide titrated
Starred links: 1 amine or outer side, 2 acyl side, 3 side chain; linkers in the order of their positions; H or OH if unused. Positions of bridges follow the written chain, without caps; N, C: chain ends. Non-standard residues stand in square brackets, D forms with d. Primed or numbered codes have the meaning given here. B5(4) = 2,2-bis(4-pentenyl)glycine = 2-amino-2-(pent-4-en-1-yl)hept-6-enoic acid (stitching residue), C=CCCCC(CCCC=C)(N[*:1])C(=O)[*:2]; B5(5) = 2,2-bis(4-pentenyl)glycine, 2-amino-2-(pent-4-en-1-yl)hept-6-enoic acid (stitching residue), C=CCCCC(CCCC=C)(N[*:1])C(=O)[*:2]; SeN = (S)-5-(((allyloxy)carbonyl)(methyl)amino)-2-amino-2-methylpentanoic acid, C=CCOC(=O)N(C)CCC[C@](C)(N[*:1])C(=O)[*:2]; B5(3) = 2,2-bis(4-pentenyl)glycine (stitching residue), C=CCCCC(CCCC=C)(N[*:1])C(=O)[*:2]; Phe(3,4-F2) = N[C@@H](Cc1ccc(F)c(F)c1)C(=O)O; Phe(3-F) = N[C@@H](Cc1cccc(F)c1)C(=O)O; Phe(3-Me) = Cc1cccc(C[C@H](N)C(=O)O)c1; 2Nal = N[C@@H](Cc1ccc2ccccc2c1)C(=O)O; αAllylPro = C=CC[C@@]1(C(=O)O)CCCN1; hPhe = N[C@@H](CCc1ccccc1)C(=O)O; S8 = C=CCCCCCC[C@](C)(N)C(=O)O; Nle = CCCC[C@H](N)C(=O)O

>  <Binder>
Ac-[αAllylPro]DA[B5(4)]DEAA[Phe(3,4-F2)]V[S8]F[2Nal]Q-NH2 (staple 1-4, 4-11, Stapled peptide composition) [I-184]

>  <Qualifier>
=

>  <EC50 / nM>
628

$$$$
>  <Binder>
Ac-[αAllylPro]DA[B5(4)]DEAA[Phe(3-Me)]V[S8]FWQ-NH2 (staple 1-4, 4-11, Stapled peptide composition) [I-207]

>  <Qualifier>
=

>  <EC50 / nM>
143

$$$$
>  <Binder>
Ac-[αAllylPro][Phe(3-F)]A[B5(3)]DEAAFV[S8]FWQ-NH2 (staple 1-4, 4-11, Stapled peptide composition) [I-204]

>  <Qualifier>
=

>  <EC50 / nM>
7280

$$$$
>  <Binder>
Ac-[αAllylPro]DI[B5(5)]DDAAFQ[SeN]FWH-NH2 (staple 1-4, 4-11; not fully specified; printed as Ac-PL3-Asp-Ile-B5-Asp-Asp-Ala-Ala-Phe-Gln-SeN-Phe-Trp-His-NH2, Stapled peptide composition) [I-189]

>  <Qualifier>
=

>  <EC50 / nM>
156

$$$$
>  <Binder>
Ac-[αAllylPro]DA[B5(3)][Nle]EAAFV[S8]FWQ-NH2 (staple 1-4, 4-11, Stapled peptide composition) [I-205]

>  <Qualifier>
≥

>  <EC50 / nM>
10000

$$$$
>  <Binder>
XDAXDEAAFQXFWH (not fully specified; As printed: Ac-PL3-Asp-Ala-B5-Asp-Glu-Ala-Ala-Phe-Gln-S8-Phe-Trp-His-NH2. N-terminal Ac; C-terminal amide; PL3 (1), B5 (4), S8 (11) stapled by olefin metathesis (PL3-B5 and B5-S8), Stapled peptide composition) [I-179]

>  <Qualifier>
=

>  <EC50 / nM>
152

$$$$
>  <Binder>
Ac-[αAllylPro]DA[B5(4)][hPhe]EAAFV[S8]FWQ-NH2 (staple 1-4, 4-11, Stapled peptide composition; this is the earlier-eluting isomer composition) [I-196]

>  <Qualifier>
=

>  <EC50 / nM>
5510

$$$$
>  <Binder>
Ac-[αAllylPro]DI[B5(5)]DEAAFV[S8]FWH-NH2 (staple 1-4, 4-11, Stapled peptide composition) [I-177]

>  <Qualifier>
=

>  <EC50 / nM>
549

$$$$
>  <Binder>
XDAXDEAAFAXFWA (not fully specified; As printed: Ac-PL3-Asp-Ala-B5-Asp-Glu-Ala-Ala-Phe-Ala-S8-Phe-Trp-Ala-NH2. N-terminal Ac; C-terminal amide; PL3 (1), B5 (4), S8 (11) stapled by olefin metathesis (PL3-B5 and B5-S8), Stapled peptide composition; this is the later-eluting isomer composition) [I-187]

>  <Qualifier>
=

>  <EC50 / nM>
204

$$$$
>  <Binder>
Ac-[αAllylPro]DI[B5(5)]DDAAFQ[SeN]FWH-NH2 (staple 1-4, 4-11; not fully specified; printed as Ac-PL3-Asp-Ile-B5-Asp-Asp-Ala-Ala-Phe-Gln-SeN-Phe-Trp-His-NH2, Stapled peptide composition) [I-190]

>  <Qualifier>
=

>  <EC50 / nM>
94

$$$$
